From: patent US10829473B2

targetOfAssay: F508delCFTR (Homo sapiens, UniProt P13569, DEL508-508)
Construct: expressed in transfected cells; host or cells: CFBE41o- human lung derived epithelial cells (CFBE41o-F508delCFTR-HRP), doxycycline-inducible
Sequence (P13569 with tags, fused parts or gaps DEL508-508): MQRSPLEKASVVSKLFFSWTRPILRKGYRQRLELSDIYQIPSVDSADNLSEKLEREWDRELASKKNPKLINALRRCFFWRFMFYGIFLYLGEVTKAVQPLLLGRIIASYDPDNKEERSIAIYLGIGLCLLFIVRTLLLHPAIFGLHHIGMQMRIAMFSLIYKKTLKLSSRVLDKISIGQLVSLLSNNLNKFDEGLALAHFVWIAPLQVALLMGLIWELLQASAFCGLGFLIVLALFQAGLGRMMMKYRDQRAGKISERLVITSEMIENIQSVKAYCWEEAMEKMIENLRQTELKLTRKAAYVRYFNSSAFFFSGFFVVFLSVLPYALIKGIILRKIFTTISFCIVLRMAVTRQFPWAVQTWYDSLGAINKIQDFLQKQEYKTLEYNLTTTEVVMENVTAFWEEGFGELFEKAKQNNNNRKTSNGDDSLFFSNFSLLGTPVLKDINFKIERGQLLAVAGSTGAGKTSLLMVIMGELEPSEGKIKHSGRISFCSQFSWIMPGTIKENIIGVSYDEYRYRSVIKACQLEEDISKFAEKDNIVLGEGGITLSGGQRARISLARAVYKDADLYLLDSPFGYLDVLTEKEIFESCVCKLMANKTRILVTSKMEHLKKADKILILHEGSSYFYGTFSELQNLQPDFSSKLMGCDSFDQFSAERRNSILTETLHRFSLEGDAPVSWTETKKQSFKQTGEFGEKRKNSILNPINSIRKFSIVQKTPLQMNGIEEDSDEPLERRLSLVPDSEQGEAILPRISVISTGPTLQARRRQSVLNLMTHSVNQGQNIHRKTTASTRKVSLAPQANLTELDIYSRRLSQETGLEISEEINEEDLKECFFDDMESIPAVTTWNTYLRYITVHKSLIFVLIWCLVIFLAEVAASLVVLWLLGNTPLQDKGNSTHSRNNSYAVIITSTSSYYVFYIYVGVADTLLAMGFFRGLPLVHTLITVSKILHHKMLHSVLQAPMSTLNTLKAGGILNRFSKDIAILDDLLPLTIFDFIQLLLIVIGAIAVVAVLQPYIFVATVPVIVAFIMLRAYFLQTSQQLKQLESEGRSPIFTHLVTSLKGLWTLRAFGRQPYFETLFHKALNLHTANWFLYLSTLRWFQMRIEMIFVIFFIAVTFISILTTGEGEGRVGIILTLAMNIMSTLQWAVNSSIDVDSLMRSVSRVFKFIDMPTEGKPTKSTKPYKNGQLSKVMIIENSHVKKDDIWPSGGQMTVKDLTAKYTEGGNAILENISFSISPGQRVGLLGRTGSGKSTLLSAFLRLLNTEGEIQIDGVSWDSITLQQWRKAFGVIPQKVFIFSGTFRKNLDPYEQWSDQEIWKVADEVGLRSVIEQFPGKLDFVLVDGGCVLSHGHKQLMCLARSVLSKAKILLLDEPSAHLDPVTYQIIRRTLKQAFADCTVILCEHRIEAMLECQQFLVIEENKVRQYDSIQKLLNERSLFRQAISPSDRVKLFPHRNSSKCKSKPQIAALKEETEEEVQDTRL
protocolDetails: Cell Surface Expression-Horse Radish Peroxidase (CSE-HRP) Assay
Assay type: cell-based
conditionInfo: test compound without co-corrector; read-out: EC50 (without co-corrector)
pEC50: −log10 of the molar value.
So I've got a bunch of molecules here, and I need their pEC50 values.

Bench note: what pEC50 did Cc1cnc(F)cc1C1(C(=O)NS(=O)(=O)c2cccc3ncccc23)CC1 [GIII-16] show? < 5.00

Bench note: what pEC50 did CC(C)COc1ccc(OC(C)C)c(C2(C(=O)NS(=O)(=O)c3cccc4[nH]ccc34)CC2)n1 [Example GI-89] show? > 5.52

Bench note: what pEC50 did CC(C)Oc1ncc(N2CCC2)cc1C1(C(=O)NS(=O)(=O)c2cccc3ncccc23)CC1 [Example GI-83] show? 5.00 to 5.52

Bench note: what pEC50 did CC(C)OC1CCN(c2ncc(C3CCC3)cc2C2(C(=O)NS(=O)(=O)c3cccc4[nH]ccc34)CC2)CC1 [Example GI-104] show? > 5.52

Bench note: what pEC50 did CCc1cnc(OCCOC)c(C2(C(=O)NS(=O)(=O)c3cccc4[nH]ccc34)CC2)c1 [Example GI-109] show? 5.00 to 5.52

Bench note: what pEC50 did CCc1ccncc1C1(C(=O)NS(=O)(=O)c2cccc3ncccc23)CC1 [GIII-6] show? < 5.00
